# Test system: RARg homodimer (NR concentration 270 nM)
# PROCEDURE TEXT: PBM binding z-score (relative to random genomic background probes); higher = stronger binding; sequences stand for … in GC…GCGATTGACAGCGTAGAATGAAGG
Reported PBM binding z-score values for the following sequences.
Please give only the number in your answer, with no unit.

Take a look at these entries with their results.
>>> measurement("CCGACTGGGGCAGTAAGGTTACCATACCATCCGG")
0.917
>>> measurement("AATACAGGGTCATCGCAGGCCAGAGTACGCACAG")
5.21
>>> measurement("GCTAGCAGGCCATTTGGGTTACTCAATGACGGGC")
0.178
>>> measurement("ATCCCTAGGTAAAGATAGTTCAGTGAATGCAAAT")
0.526
>>> measurement("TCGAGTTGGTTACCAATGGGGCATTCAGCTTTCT")
-0.85

Then this sequence:
**Q:** Record request: PBM binding z-score value, item `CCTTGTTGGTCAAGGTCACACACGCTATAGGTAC`
**A:** 4.95

Each recorded value in this set is attributed to the supplement of paper PMC6555819.
